# protocol-description: Partition coefficient, log P of compound at 1:1 1-octanol/water volume ratio by spectrophotometer
# Type: physicochemical

compound: CCOC(=O)c1nc2ccccn2c1[N+](=O)[O-]
logP: 0.983

compound: CCOC(=O)c1nc2cccc(C)n2c1[N+](=O)[O-]
logP: 1.27

compound: Cc1cccc2nc(C(N)=O)c([N+](=O)[O-])n12
logP: 0.67

compound: O=C(O)c1nc2ccccn2c1[N+](=O)[O-]
logP: -0.041

compound: Cc1cccc2nc(NC3CCCCC3)c([N+](=O)[O-])n12
logP: 1.56

compound: Cc1ncc([N+](=O)[O-])n1CCO [METRONIDAZOLE]
logP: 0.12

compound: N#Cc1nc2ccccn2c1[N+](=O)[O-]
logP: 0.691

compound: O=[N+]([O-])c1cnc2ccccn12
logP: 0.938

compound: O=[N+]([O-])c1c(NC2CCCCC2)nc2ccccn12
logP: 1.54

compound: NC(=O)c1nc2ccccn2c1[N+](=O)[O-]
logP: -0.515

compound: Cc1cccc2nc(C#N)c([N+](=O)[O-])n12
logP: 1.19
